In this section we review reported protease stability score values for a set of sequences.
# Experiment notes: protease stability score; higher = more stable; yeast display proteolysis, trypsin and chymotrypsin;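 note: relative to predicted unfolded state with 0 unfolded-like and 1 meaning tenfold more protease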
Would you mind answering with just the numeric figure?

Sample answers from the record:
SEEEHHAEEFVKIFTMTNLTGDFTTLEKLADPNVQIDVGDKHFHGREEMLKLIQDERREFGFKHLHLEIDRIETQGNFLDVHITVIIRVNGVEMRHKRRLTILKIDGQWHIKSVEVD :: 1.27
KEHEKFVEDFARLLINIWTTGDEDLFNELADPHVRVNFNGVEHHGRENVIRYIERVLREIRIDHVQTRDWTVIDGVMHIEGHIHIHFDGRQRTHDVIFHIIIWNGKMKNVIVSFR :: 1.67
SEEERHIKEFTRRLLHVFITGDEHELKELFDPNTRSIFNGVDVHGWKEITRFIREIREKEVRIRDVKVFNGRVHLEGHSNMEWNGQERRSDVEMHFDVINGQVHEIEIRIR :: 1.17

Exercise: Form field: reported protease stability score of `SEEHKMVRDVTEDWLRLLLTGDEERLAELLDPNTRFLINGKEHHGREEAIEEWRHLRVDDFRIKSIDIQYQGEKAYVDIDGRQRGKVNGKKQDRDIKIHFHILKINGRWTIHEVRVEIE`
Key: 1.56

Exercise: Recorded protease stability score for `DTEQKHVLHLLDEVLHNILTGDWDRIDELMDPNVRVIIGEWDHHGRSYFRELHHLLMLKLGVDHRHIKIQDKDAQGEYAVAHTHLELRIGDKRETYQTRLIVSVVNGKIEEIRIHIG` , please?
Key: 0.877

Exercise: Tell me the measured protease stability score of `DEEKEFAEIYLRRLEELYNTGDEEIEHDLLDPHVRINIGNKHIHGREQYIEHWRKLLIILGIERFTIHVRIKDVRIQGEFAHLDGRLELRVGDKRRTLDVELIILKVNGRWVNKHIHFL` , please.
Key: 0.888

Exercise: Consider the sequence shown here: `SEEEEYVTKYTRHWLHSHVTGDEDYLRRYADPHVRVDINGREVHGRDEAAHFIERVLRHIREEHLDDRDFTVINGKSILHGELKISINGQEWRVNFDIIIVVVNGRFKREEVRVK` What is its recorded protease stability score?
Key: 0.858

Exercise: Requested field: protease stability score. Item: `SEDDEMLKLFFELVHRFHLTGDETNHLNNMDPHARMNAENWRRHGRHALEQLRTRFDHIDHVHLDHYETFDGRLILHVTVDGQFDGVRDRNTLHIVMKKINGRWIMEELRIQ`
Key: 1.23

Exercise: What does the record list as protease stability score for `SEDHREARHAVHVFLHLLETGDEDHLVKLLDPNVRYVIGDKTHHGWEELERIRNKFKNIRITLRDRDFHIFDGRLLVLIRGELEFDGRRVDFEVITYIEKINGRWIVSEFRIHLN` ?
Key: 1.5

Exercise: Reported protease stability score for `DHLHEDSKEAFHLWKELSRTGDPKEFADNVDPNVRILINGKRYHGMEHLEHLMMELGIKHSEITRIDTIGDKLHLDGHNRFNGRTVDVHILSNKINGRWVIEEVEVL` : what is it?
Key: 1.14

Exercise: Consider the sequence shown here: `SHEEEMHLHVAELMLKLLLTGNEEELAKLMDPNVQTEIDGRSYHGRELIIDLIRHSREKLGVNHSELKRSHVRLVDGRLHVHLDSRFLVNGVWLDVEIEMFVLKINGKWVIESVHVRVR` What is its recorded protease stability score?
Key: 0.718
